Listed next: entries and their corresponding self-cleavage.
B1: CPEB3 Ribozyme (parent)
chain: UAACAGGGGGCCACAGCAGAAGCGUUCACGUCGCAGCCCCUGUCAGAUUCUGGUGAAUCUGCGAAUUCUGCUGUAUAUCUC

variants of: B1; assay: self-cleavage, relative activity (ratio to wild type); higher = more cleavage; in vitro, sequencing
Answer as a number with no unit attached.

I have this variant here, A3G G63C , and I need its recorded self-cleavage. 1.06

Repeat with G63U U80C 1.11

Repeat with G22U A35U 0.09

Repeat with G7A U67A 0.17

Repeat with C44G 0.52
